target: Carbonic anhydrase 2 (Bos taurus); assay: SPR biosensor assay Biacore T100; conditions: pH 7.4, read-out: kon (M-1-s-1); 25 °C
Sequence (P00921 whole entry): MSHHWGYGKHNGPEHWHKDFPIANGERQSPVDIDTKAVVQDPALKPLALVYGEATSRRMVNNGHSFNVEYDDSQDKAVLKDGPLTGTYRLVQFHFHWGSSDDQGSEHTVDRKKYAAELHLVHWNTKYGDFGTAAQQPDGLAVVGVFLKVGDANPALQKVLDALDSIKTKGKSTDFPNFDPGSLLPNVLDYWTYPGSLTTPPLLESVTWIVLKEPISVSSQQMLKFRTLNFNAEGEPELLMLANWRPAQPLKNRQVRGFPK
measured.property: kon
The answer should read as a number with its unit following.

Example entries and their recorded answers appear below.
NS(=O)(=O)c1ccc2c(c1)CCN2 [2,3-dihydro-1H-indole-5-sulfonamide] | 58500 M⁻¹ s⁻¹
Cc1c(Cl)cc(F)cc1S(N)(=O)=O | 76300 M⁻¹ s⁻¹
Cn1cnc(S(N)(=O)=O)c1 [1-methyl-1H-imidazole-4-sulfonamide] | 164000 M⁻¹ s⁻¹
Nc1ccc(S(N)(=O)=O)cn1 [6-aminopyridine-3-sulfonamide] | 203000 M⁻¹ s⁻¹
NS(=O)(=O)c1ccc2c(c1)OCCO2 | 109000 M⁻¹ s⁻¹

Measured on Carbonic anhydrase 2 (Bos taurus), Cc1ccccc1S(N)(=O)=O [2-methylbenzene-1-sulfonamide] has a documented kon of 240000 M⁻¹ s⁻¹

Attribution: BindingDB's records for doi:10.7270/Q2BC3WXH
